Read-out: Heat shock 70 kDa protein 1 (HSPA1A), gene 3303
Assay: LTEA_HepaRG_HSPA1A: Life Technologies and Expression Analysis (LTEA) Assay for Heat shock 70 kDa protein 1 (HSPA1A) using HepaRG (AID 2283502)
Conditions: mRNA level, 48 h; actives raise or lower the signal
The source made the active and inactive calls. The calls were made as follows: active = hit-call score of the fitted dose curve at least 0.9, where 1 is the maximum; inactive = score below 0.9.
Write down the outcome that applies. Available outcomes: active, inactive

Prompt: Answer briefly: the call reported for `N#Cc1c(Cl)c(Cl)c(Cl)c(C#N)c1Cl` in this assay.
Completion: active

Prompt: Assay outcome for `Oc1ccc(Cl)cc1Cc1ccccc1` : what was it?
Completion: inactive

Prompt: Assay result, entry CCOC1Oc2ccc(OS(C)(=O)=O)cc2C1(C)C (centres undefined) — outcome?
Completion: inactive

Prompt: Tell me the recorded outcome of this test for ClC1C(Cl)C(Cl)C(Cl)C(Cl)C1Cl (centres undefined) .
Completion: inactive

Prompt: Could you kindly confirm the outcome this assay logged for `O=[N+]([O-])/N=C1\NCCN1Cc1ccc(Cl)nc1` ?
Completion: active

Prompt: Name the outcome recorded for `CC(C)OC(=O)Nc1cccc(Cl)c1` in the assay.
Completion: inactive

Prompt: Recorded test outcome, item CC[C@H](C)[C@H]1O[C@]2(C=C[C@@H]1C)C[C@@H]1C[C@@H](C/C=C(\C)[C@@H](O[C@H]3C[C@H](OC)[C@@H](O[C@H]4C[C@H](OC)[C@@H](O)[C@H](C)O4)[C@H](C)O3)[C@@H](C)/C=C/C=C3\CO[C@@H]4[C@H](O)C(C)=C[C@@H](C(=O)O1)[C@]34O)O2 (tested in a mixture with another compound)
Completion: active

Prompt: I'd appreciate the recorded outcome for `O=C(Nc1ccccc1)Nc1cnns1` from this test.
Completion: inactive

Prompt: For this molecule, state the assay outcome: CCC(C)Nc1c([N+](=O)[O-])cc(C(C)(C)C)cc1[N+](=O)[O-] (centres undefined)
Completion: inactive
